protocol: Measurement of Sodium Ion Channel Blocking Effects: In order to measure the sodium ion channel blocking effect, an IonFlux16 Auto patch clamp system (Fluxion, Inc.) and a plate for exclusive use were used. The cells were distributed in an extracellular solution (4 mM KCl, 138 mM NaCl, 1 mM MgCl2, 1.8 mM CaCl2, 5.6 mM glucose, 10 mM HEPES, pH 7.45), and then dispensed in the specified region of the plate, and each of the prepared compound samples was diluted at various concentrations, and then dispensed in the specified region of the plate.
Assay type: cell-based
IC50 by entry:
Answer with a number only, understood to be in nM.

[
  {
    "compound": "CNCCN(C)c1cc(OC)ccc1Nc1cc(F)c(S(=O)(=O)Nc2cscn2)cc1Cl",
    "measurement-type": "IC50",
    "numeric-result": 140
  }
]

// next entry
Query block: Requested field: IC50. Item: CNC1CCN(c2cc(F)ccc2Nc2cc(F)c(S(=O)(=O)Nc3ccn(C)n3)cc2Cl)C1 (stereo not given)
Result block: 390

// data source = ChEMBL document CHEMBL5726731
